test system: Botulinum neurotoxin type F light chain protease (Clostridium botulinum); assay: Botulinum neurotoxin type F light chain protease inhibition, multiplex microsphere flow cytometry, validation set (AID 588459); conditions: multiplex microsphere protease substrate cleavage assay, at 10 µM, hits give high values
Entries and their inhibition values follow.
The reply should contain only the number, in %.

Before answering, review these 3 worked examples.
{"compound": "CC(=O)Nc1ccc(CN2CCN(C3CCCCC3)C(CCO)C2)cc1 (stereo not drawn)", "unit tag": "%", "inhibition": -0.2}
{"compound": "CCCOc1ccc(-c2cc(C(=O)NCC3CCCO3)c3ccccc3n2)cc1 (stereo not drawn)", "unit tag": "%", "inhibition": -0.2}
{"compound": "Cc1ccc(NC(=O)CSc2nc(O)c(Cc3ccccc3)c(=O)n2-c2ccccc2)cc1", "unit tag": "%", "inhibition": -0.8}

Task: Please respond with reported inhibition (system Botulinum neurotoxin type F light chain protease (Clostridium botulinum)) for `CCOc1ccc(N2C(=O)NC(=O)/C(=C\c3cc(OC)c(OC)cc3[N+](=O)[O-])C2=O)cc1` .
Output: -3.1

Task: Supply inhibition measured with Botulinum neurotoxin type F light chain protease (Clostridium botulinum) for Cc1ccsc1C(=O)C1CCCN(Cc2cc3ccccc3o2)C1 (stereo not drawn) .
Output: 2.8

Task: State inhibition (Botulinum neurotoxin type F light chain protease (Clostridium botulinum)) of `COc1cc(CC(=O)NCCc2ccc(S(N)(=O)=O)cc2)cc(OC)c1OC` .
Output: 4.1

Task: Provide inhibition, tested on Botulinum neurotoxin type F light chain protease (Clostridium botulinum), for CC(C)CN1CCN(Cc2ccc(C#CC(C)(C)O)cc2)CC1CCO (stereo not drawn) .
Output: 3.7

Task: Supply inhibition measured with Botulinum neurotoxin type F light chain protease (Clostridium botulinum) for CC[N+]1(CC)CC2=Cc3ccccc3CC2C1 (stereo not drawn) .
Output: -1.1

Where do the numbers come from? From PubChem BioAssay.
